Cited source for all entries: paper PMC12675537

Target: MdtF (Escherichia coli, UniProt P37637, V610F)
Construct: MdtF-6xHis (C-terminal His tag) in SMALP native-lipid nanodiscs; homotrimer
Sequence (P37637 1-1037 V610F): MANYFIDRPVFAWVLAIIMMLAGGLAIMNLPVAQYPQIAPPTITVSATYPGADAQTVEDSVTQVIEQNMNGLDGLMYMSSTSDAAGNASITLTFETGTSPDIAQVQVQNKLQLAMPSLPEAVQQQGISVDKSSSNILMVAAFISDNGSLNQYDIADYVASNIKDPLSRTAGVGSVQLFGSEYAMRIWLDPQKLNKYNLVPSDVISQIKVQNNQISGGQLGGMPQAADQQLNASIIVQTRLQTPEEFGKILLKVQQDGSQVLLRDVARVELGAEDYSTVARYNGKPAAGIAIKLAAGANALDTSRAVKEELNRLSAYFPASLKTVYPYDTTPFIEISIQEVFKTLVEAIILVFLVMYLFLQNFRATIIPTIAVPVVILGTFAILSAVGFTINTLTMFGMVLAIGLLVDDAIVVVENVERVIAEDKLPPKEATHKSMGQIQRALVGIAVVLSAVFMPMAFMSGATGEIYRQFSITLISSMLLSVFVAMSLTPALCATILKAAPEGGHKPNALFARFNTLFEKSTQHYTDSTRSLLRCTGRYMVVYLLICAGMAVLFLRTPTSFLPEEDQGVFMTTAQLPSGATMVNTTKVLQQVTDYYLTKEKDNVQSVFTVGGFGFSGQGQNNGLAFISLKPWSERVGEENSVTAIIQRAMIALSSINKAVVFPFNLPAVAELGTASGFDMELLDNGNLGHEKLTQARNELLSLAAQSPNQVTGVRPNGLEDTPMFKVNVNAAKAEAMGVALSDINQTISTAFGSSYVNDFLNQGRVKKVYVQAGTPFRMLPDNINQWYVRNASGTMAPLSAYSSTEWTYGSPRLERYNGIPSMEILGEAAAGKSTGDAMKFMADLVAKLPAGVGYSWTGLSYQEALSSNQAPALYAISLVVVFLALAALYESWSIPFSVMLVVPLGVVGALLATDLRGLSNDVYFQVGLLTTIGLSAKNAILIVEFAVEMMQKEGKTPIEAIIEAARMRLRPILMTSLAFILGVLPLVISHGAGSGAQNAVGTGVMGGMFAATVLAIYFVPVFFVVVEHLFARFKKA
Experiment: fluorescence polarisation Kd; thermal stabilisation (CD, DSC, nanoDSF)
EXPERIMENTAL READOUT: Kd (nM)
Give the number; nM is assumed, so skip it.

Ask | Using known records, supply Kd for CC/N=c1\cc2oc3cc(NCC)c(C)cc3c(-c3ccccc3C(=O)OCC)c-2cc1C
Reply | 720
